Taken from PubChem BioAssay AID1159580.

- PROCEDURE SUMMARY: chemical genetic growth profiling, strain panel (AID 1159580);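 further: tested at 20 µM; growth read once vehicle control cultures reached saturation at 30 °C; 1 = growth at the plate median or of vehicle wells; lower values mean less growth of the strain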
- MEASUREMENT PARAMETERS: S. cerevisiae deletion strains, growth OD, locus YGR252W, strain gcn5, active compounds read low
About 2,000 (36%) of roughly 5,500 compounds were called active. Another 18% or so got no clear call; they are omitted. Some of the results follow.
RECORDED ENDPOINT: normalized growth

Field request: normalized growth | item: COc1cc2c(cc1OC)C1C(=O)c3c(O)cc4c(c3OC1CO2)C=CC(C)(C)O4 (stereo not drawn)
1.03 (inactive)

// normalized growth lookup, key: CC1CC2C3CC(F)C4=CC(=O)C=CC4(C)C3(F)C(O)CC2(C)C1(O)C(=O)CO (stereo not drawn)
1.06 (inactive)

What measured normalized growth goes with CCS(=O)CCSP(=O)(OC)OC (stereo not drawn) ?
0.945 (inactive)

====

- PROCEDURE SUMMARY: chemical genetic growth profiling, strain panel (AID 1159580)
- MEASUREMENT PARAMETERS: S. cerevisiae deletion strains, growth OD, locus YDR101C, strain arx1, active compounds read low
The whole screen tested about 5,500 compounds, of which about 2,000 (36%) were called active. Roughly 18% stayed inconclusive and do not appear here. Some of the results follow.
Field: normalized growth. Provide a value for each of the molecules that follow.

Reported normalized growth, molecule ClC1=C(Cl)C2(Cl)C3C4C=CC(C4)C3C1(Cl)C2(Cl)Cl (stereo unspecified) : ____
1 (inactive)

Request the reported normalized growth associated with S=c1nc[nH]c2nc[nH]c12
1 (inactive)

Entry under review: CCOC(=O)[C@H](CCc1ccccc1)N[C@H]1CCc2ccccc2N(CC(=O)O)C1=O . Reported normalized growth?
0.98 (inactive)

Please look up its normalized growth: CS(=O)(=O)c1ccc(C2=C(c3ccccc3)C(=O)OC2)cc1
0.995 (inactive)

Given the entry CC(=O)OC(C)(C)[C@@H]1Cc2cc3ccc(=O)oc3cc2O1 , report its measured normalized growth.
1.01 (inactive)

Find the recorded normalized growth belonging to ClC1=C(Cl)C2(Cl)C3C(Cl)C=CC3C1(Cl)C2(Cl)Cl (stereo unspecified) and report it.
0.992 (inactive)

Using the record for CC1/C(=N\O)C[C@@H]2C[C@H]1C2(C)C (stereo partly specified) , report its normalized growth.
0.981 (inactive)

Item CC(=O)OCC(=O)[C@@]1(O)CCC2C3CCC4=CC(=O)CC[C@]4(C)C3C(=O)C[C@@]21C (stereo partly specified) has what recorded normalized growth?
1.02 (inactive)

I would be grateful if you could share the reported normalized growth for COc1cc2c(cc1OC)C(=O)OC2 .
0.994 (inactive)

Item CCOC(=O)C(=O)C1(C(=O)OCC)Oc2cc(OC)cc(OC)c2C(=O)C1c1ccccc1 (stereo unspecified) has what recorded normalized growth?
0.955 (inactive)

Returns the measured normalized growth for the input molecule. Input: COc1cc2c(cc1OC)C1C(=O)c3c(OC)cc4c(c3OC1CO2)CCC(C)(C)O4 (stereo unspecified)
0.984 (inactive)

====

- PROCEDURE SUMMARY: chemical genetic growth profiling, strain panel (AID 1159580)
- MEASUREMENT PARAMETERS: S. cerevisiae deletion strains, growth OD, locus YJR043C, strain POL32, active compounds read low
About 2,000 (36%) of roughly 5,500 compounds were called active. Roughly 18% stayed inconclusive and do not appear here. The list shows a part of the results.
Provide the reported normalized growth of each item.
Please respond with just the number, no unit label.

Recorded normalized growth for CC(N)C(=O)OC(C)(C)Cc1ccc(Cl)cc1 (configuration not stated) , please?
1.02

Which normalized growth is reported for this molecule? CCOC(=O)C(C)(C)Oc1ccc(Cl)cc1
1

// normalized growth lookup, key: C=C(C)[C@@H]1[C@H]2OC(=O)[C@@H]1[C@]1(O)C[C@H]3O[C@]34C(=O)O[C@H]2[C@]14C
1.02

Please report the recorded normalized growth for C[C@]12CC(=O)C3C(CC[C@@H]4C[C@H](O)CC[C@]34C)C1CC[C@]2(O)C(=O)CO (some centres not stated) .
1

Returns the measured normalized growth for the input molecule. Input: CC(C)OC(=O)C(C)(C)Oc1ccc(C(=O)c2ccc(Cl)cc2)cc1
1.01

Any idea what its normalized growth is? The molecule is CCOc1ccc(/C=C(\C#N)c2cccc(Cl)c2)cc1
1

I have this molecule here, CN(C)c1ccc(C(=O)NN)cc1 , and I need its recorded normalized growth.
1.02

====

- PROCEDURE SUMMARY: chemical genetic growth profiling, strain panel (AID 1159580)
- MEASUREMENT PARAMETERS: S. cerevisiae deletion strains, growth OD, locus YLR371W, strain rom2, active compounds read low
Hit rate of the full screen: of about 5,500 compounds, about 2,000 (36%) were called active. Roughly 18% stayed inconclusive and do not appear here. This is one part of the list.
Assign normalized growth to each entry below.
Enter the number alone.

Query (compound): C[C@H]1CC2C([C@@H](O)C[C@@]3(C)C2CC[C@]3(O)C(=O)CO)[C@@]2(C)C=CC(=O)C=C12 (stereo partly drawn) ; field requested: normalized growth
1.01

I have this compound here, CC1=C(C(C)O)C2=NC1C=c1[nH]c(c(C)c1C(C)O)=Cc1[nH]c(c(CCC(=O)O)c1C)C=c1[nH]c(c(C)c1CCC(=O)O)=C2 (stereo not drawn) , and I need its recorded normalized growth.
1.02

Any idea what its normalized growth is? The compound is CC(C)(OC(=O)c1ccccc1)[C@@H]1Cc2cc3ccc(=O)oc3cc2O1
0.994

Consider the compound shown here: CC(NCCc1ccc(O)cc1)C(O)c1ccc(O)cc1 (stereo not drawn) What is its recorded normalized growth?
0.975

# normalized growth lookup, item CC1/C(=N\O)C[C@@H]2C[C@H]1C2(C)C (stereo partly drawn)
1.04

Entry under review: CC(N)CCCC(C)(C)O (stereo not drawn) . Reported normalized growth?
0.991

Request the reported normalized growth associated with CCN(CC)CCCC(C)Nc1ccnc2cc(Cl)ccc12 (stereo not drawn)
1.02

Which normalized growth is listed for Cc1c(O)c(C(=O)CC(C)C)c2oc3c(C(=O)CC(C)C)c(O)c(C)c(O)c3c2c1O ?
0.999

====

- PROCEDURE SUMMARY: chemical genetic growth profiling, strain panel (AID 1159580);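 further: tested at 20 µM; growth read once vehicle control cultures reached saturation at 30 °C; 1 = growth at the plate median or of vehicle wells; lower values mean less growth of the strain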
- MEASUREMENT PARAMETERS: S. cerevisiae deletion strains, growth OD, strain NNK1, active compounds read low
The campaign covered roughly 5,500 compounds. About 2,000 (36%) were called active. About 18% were inconclusive and are not listed. The list shows a part of the results.
RECORDED ENDPOINT: normalized growth
Reply briefly: the number, and no unit.

Given the entry Cc1ccc2nc(-c3ccc(Cl)cc3)cn2c1 , report its measured normalized growth.
0.986

Quick check: normalized growth of O=c1c(Sc2ccc(Cl)cc2)c(Sc2ccc(Cl)cc2)c1=O ?
0.98

Quick one: normalized growth of O=S(=O)(Nc1cccc(CCc2ccccn2)c1)c1cc(Cl)c(Cl)cc1Cl ?
0.992

Endpoint output: normalized growth of COc1ccc(CN2CSC(=S)N(Cc3ccc(OC)cc3)C2)cc1 . Value?
0.984

====

- PROCEDURE SUMMARY: chemical genetic growth profiling, strain panel (AID 1159580);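 further: tested at 20 µM; growth read once vehicle control cultures reached saturation at 30 °C; 1 = growth at the plate median or of vehicle wells; lower values mean less growth of the strain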
- MEASUREMENT PARAMETERS: S. cerevisiae deletion strains, growth OD, locus YDR001C, strain nth1, active compounds read low
Out of some 5,500 compounds screened, about 2,000 (36%) were called active. Another 18% or so got no clear call; they are omitted. The list shows a part of the results.
Could you please report measured normalized growth for the items listed next?
Format: numeric value only, no unit, no commentary.

Reported normalized growth for CCCCNc1cc(C(=O)O)cc(S(N)(=O)=O)c1Oc1ccccc1 : what is it?
1.01

# query: normalized growth of entry CC(N)C(=O)OC(C)(C)Cc1ccc(Cl)cc1 (configuration not stated)
1.02

What does the data say about its normalized growth? Entry: COC1=C(OC)C(=O)C(C/C=C(\C)CC/C=C(\C)CC/C=C(\C)CC/C=C(/C)CC/C=C(\C)CC/C=C(\C)CC/C=C(\C)CC/C=C(\C)CC/C=C(\C)CCC=C(C)C)=C(C)C1=O
0.989

Requested field: normalized growth. Item: COc1cc2c(cc1OC)[C@@H]1C(=O)c3ccc(O)c(CC=C(C)C)c3O[C@@H]1CO2
1.01

I'd like to know its normalized growth. The compound in question is CCOC(=O)c1c(C)cc(O)c(C=O)c1O
0.841

Entry CCOC(=O)c1c(C)c(Cl)c(O)c(Cl)c1O : reported normalized growth = ?
0.516

Please give the measured normalized growth for this compound: CCOC(=O)C(C)(C)Oc1ccc(Cl)cc1
0.983

====

- PROCEDURE SUMMARY: chemical genetic growth profiling, strain panel (AID 1159580);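 further: tested at 20 µM; growth read once vehicle control cultures reached saturation at 30 °C; 1 = growth at the plate median or of vehicle wells; lower values mean less growth of the strain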
- MEASUREMENT PARAMETERS: S. cerevisiae deletion strains, growth OD, locus YIL066C, strain RNR3
The campaign covered roughly 5,500 compounds. About 2,000 (36%) were called active. Not shown: some 18% with an inconclusive outcome. Rule as the data show it: active = normalized growth mostly below about 0.91 (no sharp cut-off); inconclusive = no clear call, values can overlap the other calls; inactive = mostly above about 0.92. Some of the results follow.
Can you answer with just one of these options? 1 (active), 0 (inactive)

In this assay, the call recorded for C[N+](C)(C)CCCCCC[N+](C)(C)C was what?
0

Look up the recorded call for CCN(CC)CCNC(=O)c1cc(Br)c(N)cc1OC in this test.
0

Outcome? Cc1c(O)c(C(=O)CC(C)C)c2oc3c(C(=O)CC(C)C)c(O)c(C)c(O)c3c2c1O
0

// param item: C[C@H]1CC2C([C@@H](O)C[C@@]3(C)C2CC[C@]3(O)C(=O)CO)[C@@]2(C)C=CC(=O)C=C12 (some centres not stated) ; yields the recorded call
0

Dear colleague, could you share the recorded outcome for CCCCNc1cc(C(=O)O)cc(S(N)(=O)=O)c1Oc1ccccc1 when you have a moment?
0

Give the logged outcome of this assay for the following compound: COc1cc2c(cc1OC)Cc1cc(OC)c(OC)cc1Cc1cc(OC)c(OC)cc1C2
0

Returns: the outcome recorded for C=C1C([C@]2(C)C(CC(=O)OC)[C@@](C)(COC(C)=O)OC(=O)C[C@@H]2OC(C)=O)[C@@H](OC=O)[C@H](OC(=O)C(O)C(C)CC)[C@@]2(C)[C@H](c3ccoc3)CC(=O)C12O (some centres not stated) in this assay.
0

I'd appreciate the recorded outcome for Cc1cccc(C)c1OCC(C)N (configuration not stated) from this test.
0

What classification did C=C1C([C@]2(C)C(CC(=O)OC)[C@@](C)(COC(C)=O)OC(=O)C[C@@H]2OC(C)=O)[C@@H](OC=O)[C@H](OC(=O)C(OC(C)=O)C(C)CC)[C@@]2(C)[C@H](c3ccoc3)CC(=O)C12O (some centres not stated) end up with in this test?
0

Short answer needed: outcome of this test for ClC1=C(Cl)C2(Cl)C3C4C=CC(C4)C3C1(Cl)C2(Cl)Cl (configuration not stated) ?
0

Please share the test call associated with CCOC(=O)[C@H](CCc1ccccc1)N[C@H]1CCc2ccccc2N(CC(=O)O)C1=O .
0

What call does the record list for COc1cc(O)c(C(=O)/C=C/c2ccccc2)c(OC)c1 ?
0

So what was the verdict on COc1cc(NC(C)CCCN)c2ncccc2c1 (configuration not stated) in this test?
0

Record lookup: outcome of this test for CC1=C(/C=C/C(C)=C/C=C/C(C)=C/C=C/C=C(C)/C=C/C=C(C)/C=C/C2=C(C)C(=O)C(O)CC2(C)C)C(C)(C)CC(O)C1=O (configuration not stated) ?
0

Short answer needed: outcome of this test for CC(=O)c1c(O)c(C)c(O)c2c1oc1c(C(C)=O)c(O)c(C)c(O)c12 ?
0

Please let me know the test result on file for COc1ccc2c(c1)OCc1c-2oc2cc(OC)ccc12 .
1

Identify the outcome logged in this assay for the compound shown: COc1ccc2c(C)cc(=O)oc2c1
0
